# System: RARb:RXRa (NR concentration 270 nM, RXRa partner concentration 90 nM)
# protocol_summary: PBM binding z-score (relative to random genomic background probes); higher = stronger binding; sequences stand for … in GC…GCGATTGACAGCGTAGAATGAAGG
measurement_label: PBM binding z-score
Please give only the number in your answer, with no unit.

PBM binding z-score in this record for ATCGAAAGGTCGACGAGGTGAGAATACACCGTTT : 4.1

Please fill in: PBM binding z-score reported for CCTTACGGGTCACTGACAGGTCATAGCATTTGGA = 4.53

Sample ATAGGTAGGTTAGGGTCATTCAGAAAGTAGGGAA ; PBM binding z-score observed: 4

Documented PBM binding z-score of CCGAGTAGGTTACGAGGGGGCCTTCAGTGCGAAT : 1.47

# PBM binding z-score of ACTAGAAGGCCAAGGGTCACTCAAGATTAGTCCG = 3.92

For CCGAGTACGTTACGAGGGGGCATTCAGTGCGAAT the sequence record lists PBM binding z-score as 1.29

Lab book: PBM binding z-score of AGTCAAAGTTCAGGACGAGGTAATGTAAAGCACG noted as 4.23

Field PBM binding z-score (entry CGTCCAAGGTCATAGGAGTTCAGTGAAGACAGAT ) reads 5.31

Reported PBM binding z-score ( TCGGGTAGGTTACGGGGGCATTCAGGGATGAAGA ) = 3.35

Short answer for ATATGTAGGTTAGGGCCATTCAGAAAGTAGGGAA : PBM binding z-score was 1.35

PBM binding z-score in this record for GATAGTTGGTCAGTAAAAGGTCACACACCGGTCG : 4.42

ACTAGTAGGTCAGCTGAGGTCACACACAATTCGG yielded PBM binding z-score of 5.01

###

# System: LXRa homodimer (NR concentration 270 nM)
# protocol_summary: PBM binding z-score (relative to random genomic background probes); higher = stronger binding; sequences stand for … in GC…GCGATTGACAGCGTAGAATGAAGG
Classify on PBM binding z-score using group A: < 0.02; group B: ≥ 0.02 and < 1; group C: ≥ 1

Input line: Which of the defined bands does the recorded PBM binding z-score of CCTGCTAGGTCAATGGTCAGCTCAAGCAGCTCGC sit within?
Output line: group A

Input line: Exam item: assign CAACCTAGGTCACGAAAGGTCAAAGTCGAATGAC to the correct category.
Output line: group C

Input line: Input CCGAGTAGGTTACGAGGGGGCATTGAGTGCGAAT ; output its category
Output line: group C

Input line: For ATCGAACGGTCGAGGTGAGTATAGAGAAAGGGAA , which PBM binding z-score bin applies?
Output line: group A

Input line: Which bin should I file ATCGAATGGTCGAAGGTGAGTATACCCACCCGAA under?
Output line: group A

Input line: Which band does CCGACTGGGGCAAAGGTCACCATACTCAGTACGA fall in?
Output line: group C

Input line: Sort CCGAGTCGGTTACGAGGGGGCATTCAGTGCGAAT into one of the categories.
Output line: group C

Input line: Entry ACTAGTTGGTCAGCTGAGGTCACACACAATTCGG belongs to which category?
Output line: group C

Input line: Would you mind sorting CCCCGGAGGACAGAAGGTCAGAGCTGTCCGCTTT into the appropriate category?
Output line: group B

Input line: Input ATCGTAAGGTCGTGAGGTGAGTATACAGAAAGGC ; output its category
Output line: group A

Input line: Just checking, what class would you give CCGAGTAGGTTACGAGGGGGCATTCTGTGCGAAT here?
Output line: group C

Input line: Band of ATATGTAGGTTAGGGTCACTCAGAAAGTAGGGAA ?
Output line: group B

Input line: # bin lookup: classify TCGAGTAGGTTACGGGCGCATTCAGGGATGAAGA by its PBM binding z-score
Output line: group A

Input line: Lab note: sort GATACAGGGGCAAGGCCAGAGTACGCGTATTGAT into the matching PBM binding z-score band.
Output line: group A

Input line: Band for CTATGTAGGTTAAGCGGGTCATTCAGTTTGAAAG ?
Output line: group B

Input line: Lab log: ATCGAAACGTCGTGAGGTGAGTATACAGAAAGGC — assign PBM binding z-score category
Output line: group A

Input line: Entry ACTTACGGGTCAACGACGTTATAGCACGCGTATA belongs to which category?
Output line: group B

Input line: Which class does CAAACTAGGTCAAAGGTCAGAGTCGAGCCAACCA fall in?
Output line: group C

Input line: Bin this entry: CCGAGTAGGTTACGAGGGGGCATTTAGTGCGAAT
Output line: group C

Input line: Category lookup for the sequence CTATGTATGTTAAGGGGGTCATTCAGTTTGAAAG
Output line: group C

Input line: Please let me know in which category the item CAACCTAGGTCACCGGAAGGTCAAAGTCCGCATG belongs.
Output line: group C

Input line: Each sequence maps to one class by PBM binding z-score. Which class for ATATGTAGGTTAGGGTCATACAGAAAGTAGGGAA ?
Output line: group B

Input line: Which PBM binding z-score category applies to TAGCCTAGGACATGCGGGCCAGTATAGTGTCGGC here?
Output line: group A

Input line: Entry CGAACCAGGTCAAAGGACAGTGAAAGGCGACGTA belongs to which category?
Output line: group B

Input line: Which PBM binding z-score category applies to GATACAGGGTCAACTAGAGGCCAGAGTATGGAAA here?
Output line: group B

###

Consider the following sequences; for each one, report its PBM binding z-score.
# Test system: RXRa DBDmut IVT, anti-RXR (DBD mutation: RXRa K156A/R161A, NR concentration 90 nM)
# protocol_summary: PBM binding z-score (relative to random genomic background probes); higher = stronger binding; sequences stand for … in GC…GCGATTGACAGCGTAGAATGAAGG
Note: the reply should be a number with no unit written.

The recorded PBM binding z-score for CCTACTGGGGCACGAAAGGTCATTGATTCAGTGA is 0.748

Lab note: measured PBM binding z-score of CCTTACCGGTCAAGGTTATAGCACGGGTGGTACG was -0.447

Kindly note the recorded PBM binding z-score for TTACCAAGGTGAAAGGTCATTGATGCACGCCTTG , which is 1.85

Short answer for ATATGTAGGTTATCGGGTCATTCATTTTGCGCAT : PBM binding z-score was 1.65

In plain terms, CAAACTAGGTCAAAGGTCAAACTCGAGCCAACCA has a documented PBM binding z-score of 3.04

# PBM binding z-score (sequence: AGAATGAGGTTAACAAAGATCAGGGAAACGCTTG ) is 1.27

###

Please go through the items and note down their PBM binding z-score.
# Test system: RXRa homodimer (NR concentration 180 nM)
# protocol_summary: PBM binding z-score (relative to random genomic background probes); higher = stronger binding; sequences stand for … in GC…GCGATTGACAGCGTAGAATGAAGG

In plain terms, CTATGTAGGTTAAGGGGGTCGTTCAGTTTGAAAG has a documented PBM binding z-score of 2.93

Summary for this sequence, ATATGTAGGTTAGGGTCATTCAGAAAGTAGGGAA : PBM binding z-score is 5.53

According to the records, this sequence CCGAGTAGGTTACGAGGTGGCATTCAGTGCGAAT displays PBM binding z-score of 0.697

###

Could you please report measured PBM binding z-score for the items listed next?
# Test system: PPARg:RXRa 90nM:30nM, anti-RXR (NR concentration 90 nM, RXRa partner concentration 30 nM)
# protocol_summary: PBM binding z-score (relative to random genomic background probes); higher = stronger binding; sequences stand for … in GC…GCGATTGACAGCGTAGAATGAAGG
Answer with a number only.

For AGAATGAGGTTAGCAAAGATCAGGGAAACGCTTG the sequence record lists PBM binding z-score as 0.6

Quick note, PBM binding z-score for CCTACTGGGCCAAAAAGGTAATTGATGCCGATAA landed at 0.799

Looking up CGAACTAGGTAACCAGGACAGTGAAGAGGTTGGA , I see its PBM binding z-score listed as 0.958

Record summary for CGAACTAAGTCACCAGGACAGTGAAGAGGTTGGA : reported PBM binding z-score = -0.255

Kindly note the recorded PBM binding z-score for TTAACAAGGTGAAAGGTCGTTGATGCACGCCTTG , which is 9.79

According to the records, this sequence CCTAGTTGGTCAGGAGGCCACACACCGGATATGA displays PBM binding z-score of 0.128

Lab note: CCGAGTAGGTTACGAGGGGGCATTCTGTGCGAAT gave PBM binding z-score of 2.35

Input CGAACTAGGTCAAAGTACAGTGAAAGGCGACGTA . Output PBM binding z-score: 8.33

For ATATGGAGGTTAGCTGGGGTCATTCAGACTAGGC the sequence record lists PBM binding z-score as 2.72

The measured PBM binding z-score associated with CGAACTAGCTCAAAGGACAGTGAAAGGCGACGTA reads 1.99

The recorded PBM binding z-score for entry CGTCAAAGTTCAAGGTAAAGTAACAGAAAGCAGC equals 3.89

Reported PBM binding z-score for CGAACTAGGTCACCACGACAGTGAAGAGGTTGGA was 6.86

The sequence identified as AGTCAAAGTTCATCTGGGTAACGTAAGATATGCT registered its PBM binding z-score at 5.62

Record summary for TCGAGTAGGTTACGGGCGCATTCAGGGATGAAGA : reported PBM binding z-score = 1.36

PBM binding z-score reading for CGAACTAGGTCAGAACAGTACAGTGAAGGATGAT : 3.68

Recorded PBM binding z-score (sequence CCGAGTAGGTTACGAGGGGGCATTCGGTGCGAAT ): 2.56

Looking up CCGAGTAGGTTACGAGGGGGCTTTCAGTGCGAAT , I see its PBM binding z-score listed as 1.82

The recorded PBM binding z-score for entry CGAACTAGGTCAAAGGCCAGTGAAAGGCGACGTA equals 10.3

PBM binding z-score reported for this sequence GCATATAGGTAATTCAAGGTGAAAGTCCGATTGT : 0.865

// PBM binding z-score value for CTATGTAGGTTAAGGGGGTCATACAGTTTGAAAG : 8.11

Looking up TCGAGTAGGTTACGGGGACATTCAGGGATGAAGA , I see its PBM binding z-score listed as 2.27

The recorded PBM binding z-score for CTATGTAGGTTAAGGCGGTCATTCAGTTTGAAAG is 3.3

Per the record, CCTAGCAGGCCAATCGGGGTCACTCAAGGCTTGA has PBM binding z-score of 2.75

response.value for GCTGCTAGGTCAACTGAGGGTCAGCTAAAGCTCG (field: PBM binding z-score) = 2.72

Value of PBM binding z-score reported for the sequence CAAGCTAGGTCAAAGGTCAAAGTCGAGCCAACCA is 12

Kindly note the recorded PBM binding z-score for CGGAGTAGGTTACGAGGGGGCATTCAGTGCGAAT , which is 4.32

PBM binding z-score measured on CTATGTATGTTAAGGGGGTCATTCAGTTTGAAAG = 5.84

// PBM binding z-score lookup, sequence = CTAACTAGGTCACCAGGACAGTGAAGAGGTTGGA , result: 7.49

Notebook: TAGCCTAGGTCATTGGGCTAGTATAGTACGCATC , PBM binding z-score read as 1.97

The value of PBM binding z-score measured for the sequence CAAACTAGGTCAAGGTCAAAGTAGGTTTGTGCCA turned out to be 8.63

Consider CCGAGCAGGTTACGAGGGGGCATTCAGTGCGAAT . Its measured PBM binding z-score is 1.36

Entry CCGAGTAGGTTGCGAGGGGGCATTCAGTGCGAAT — recorded PBM binding z-score = 1.53

Per the records, this sequence ( CTAACTAGGTCACGAAAGGTCAAAGTCGAATGAC ) has PBM binding z-score equal to 8.68

Noted for ATATGGAGGTTAGGGTCATTCAGAAAGTAGGGAA : its PBM binding z-score reads 3.76

Looking up CCGAGTAGGTTACGAGGGGGCATTCAATGCGAAT , I found its PBM binding z-score recorded as 2.45

Per the records, this sequence ( CGAACTAGCTCACCAGGACAGTGAAGAGGTTGGA ) has PBM binding z-score equal to -0.751

According to the records, this sequence ATCGAAAGGTCGAAAGTGAGTATACCCACCCGAA displays PBM binding z-score of 2.05

Item: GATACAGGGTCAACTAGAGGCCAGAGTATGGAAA | PBM binding z-score: 4.61

get_value(item= CGAACTATGTCACCAGGACAGTGAAGAGGTTGGA , readout=PBM binding z-score) returns 0.775

The sequence identified as AGAACGAGGGCAATGAGTTCATAGCACGGGTGGC registered its PBM binding z-score at 0.912

Summary for this sequence, CAAACTAGGTCAAGAGGTCAAACTCCGCTTCCCG : PBM binding z-score is 9.09

Sure, the documented PBM binding z-score for CCTACTGGGCCAATGTCATTGATCAGTCAAAGCA is 0.12

Item: ATCGAAAGGTCGAAGGTGACTATACCCACCCGAA | PBM binding z-score: 4.38

Looking up CTATGTAGTTTAAGGGGGTCATTCAGTTTGAAAG , I see its PBM binding z-score listed as 4.56

Recorded PBM binding z-score (sequence ATATGTAGGTTCCATCCGGGTCATTCAGGCTATG ): 1.74

Reported PBM binding z-score ( AATTCAGGGTCACTAGGCCAGAGTAGGTACGAAT ) = 6.76

PBM binding z-score recorded for this sequence, CAAACTAGGTCAAAGGTCAACGTCGAGCCAACCA , is 14.4

Measured PBM binding z-score of CCTAGCAGGCCAGGGTCACCCAAGCATTTCGCTT : 1.43

Summary for this sequence, CTTAGTTGGTCAGGAGGTCACACACCGGATATGA : PBM binding z-score is 4.39

According to the records, this sequence TAGCCTAGGTCATGGGCCAGTTTACCACGCGAAC displays PBM binding z-score of 2.88

Recorded result, TCGAGCAGGTTACGGGGGCATTCAGGGATGAAGA , PBM binding z-score: 3.46

Reference for the values: the supplement of paper PMC6555819
